Cited source: ChEMBL document CHEMBL4007477

Biological target: COX1 (Prostaglandin G/H synthase 1) (Ovis aries)
Sequence (P05979 whole entry): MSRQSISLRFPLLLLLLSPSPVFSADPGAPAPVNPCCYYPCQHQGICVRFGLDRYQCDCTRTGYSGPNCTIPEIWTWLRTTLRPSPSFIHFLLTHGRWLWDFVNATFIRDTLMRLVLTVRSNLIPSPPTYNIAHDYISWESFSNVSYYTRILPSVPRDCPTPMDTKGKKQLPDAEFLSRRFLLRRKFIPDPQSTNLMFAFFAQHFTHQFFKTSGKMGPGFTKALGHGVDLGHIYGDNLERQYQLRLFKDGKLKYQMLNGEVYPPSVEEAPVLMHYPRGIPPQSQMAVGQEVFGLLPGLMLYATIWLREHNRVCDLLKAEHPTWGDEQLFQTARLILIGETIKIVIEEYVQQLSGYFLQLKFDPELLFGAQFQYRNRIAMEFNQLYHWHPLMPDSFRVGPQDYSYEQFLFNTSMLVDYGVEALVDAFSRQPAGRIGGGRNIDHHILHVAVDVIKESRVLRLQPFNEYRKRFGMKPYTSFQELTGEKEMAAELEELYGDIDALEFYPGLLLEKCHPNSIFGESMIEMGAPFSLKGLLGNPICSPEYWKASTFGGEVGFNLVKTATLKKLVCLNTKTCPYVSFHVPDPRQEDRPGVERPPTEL
Assay: Inhibition of ovine COX1 at 60 uM using arachidonic acid as substrate preincubated for 5 mins followed by substrate addition measured after 2 mins by ADHP probe-based fluorescence assay relative to control
Settings: sheep, ovine COX1 enzyme
endpoint-label: inhibition at 2 min, 60 µM (%)
Enter your answer as a number in %; do not include the unit.

Item: `N#Cc1ccc(OC(=O)c2c(-c3ccccc3)sc3c2CCCC3)cc1` Test system: COX1 (Prostaglandin G/H synthase 1) (Ovis aries) Read-out: inhibition at 2 min, 60 µM Value: ?
76

What do you have for `O=Cc1ccc(OC(=O)c2c(-c3ccccc3)sc3c2CCCC3)cc1` ?
11.6

Subsequent entry: `O=C(Oc1ccc(Br)cc1)c1c(-c2ccccc2)sc2c1CCCC2`
35.5

Continue with `CC(=O)c1cccc(OC(=O)c2c(-c3ccccc3)sc3c2CCCC3)c1`
73.5

Same lookup for `Cc1ccc(OC(=O)c2c(-c3ccccc3)sc3c2CCCC3)cc1` , please.
64

Ok, now `COc1ccc(OC(=O)c2c(-c3ccccc3)sc3c2CCCC3)cc1`
10.7

Could you do the same for `O=C(Oc1ccccc1)c1c(-c2ccccc2)sc2c1CCCC2` , please?
47.1

Next molecule: `CC(C)(C)c1ccc(OC(=O)c2c(-c3ccccc3)sc3c2CCCC3)cc1`
8.1

What do we get for `COC(=O)c1ccc(OC(=O)c2c(-c3ccccc3)sc3c2CCCC3)cc1` ?
68.9

Try `COC(=O)Cc1ccc(OC(=O)c2c(-c3ccccc3)sc3c2CCCC3)cc1` next.
7.81

What do you have for `Nc1ccc(OC(=O)c2c(-c3ccccc3)sc3c2CCCC3)cc1` ?
88.3

`NS(=O)(=O)c1ccc(OC(=O)c2c(-c3ccccc3)sc3c2CCCC3)cc1` , same question.
69.3

* * *

Tested on: Rattus norvegicus
Assay: Antiinflammatory activity in carrageenan-induced Wistar rat paw edema model assessed as rise in paw volume at 150 ug/kg administered 1 hr followed by carrageenan challenge measured at 30 mins by plethysmometer (reference value: 49.5%)
Assay type: functional
endpoint-label: Activity (%)
Only the number, expressed in %, is required.

Quick check: Activity of `NS(=O)(=O)c1ccc(OC(=O)c2c(-c3ccccc3)sc3c2CCCC3)cc1` ?
21.4

Same question for `CC(=O)Nc1ccc(OC(=O)c2c(-c3ccccc3)sc3c2CCCC3)cc1` please.
10.6

Also, `CC(=O)c1cccc(OC(=O)c2c(-c3ccccc3)sc3c2CCCC3)c1` please.
28.9

Thanks! And `Nc1ccc(OC(=O)c2c(-c3ccccc3)sc3c2CCCC3)cc1` ?
29

What do you have for `O=C(Oc1ccccc1)c1c(-c2ccccc2)sc2c1CCCC2` ?
10.6

Please answer likewise for Cc1ccc(-c2cc(C(F)(F)F)nn2-c2ccc(S(N)(=O)=O)cc2)cc1 [CELECOXIB]
5.8

Likewise for `N#Cc1ccc(OC(=O)c2c(-c3ccccc3)sc3c2CCCC3)cc1` ?
13.6

Next compound up: `CC(=O)c1ccc(OC(=O)c2c(-c3ccccc3)sc3c2CCCC3)cc1`
24.7

* * *

System: Rattus norvegicus
Experiment: Antiinflammatory activity in carrageenan-induced Wistar rat paw edema model assessed as rise in paw volume at 150 ug/kg administered 1 hr followed by carrageenan challenge measured at 60 mins by plethysmometer (reference value: 52.8%)
Format: functional
endpoint-label: Activity (%)
Express it in %; write the number only.

Form field: reported Activity of `O=C(Oc1ccccc1)c1c(-c2ccccc2)sc2c1CCCC2`
30.2

Also `CC(=O)c1cccc(OC(=O)c2c(-c3ccccc3)sc3c2CCCC3)c1` ?
30.8

Now consider `CC(=O)Nc1ccc(OC(=O)c2c(-c3ccccc3)sc3c2CCCC3)cc1` .
30.2
